Kindly state URE/OA for each of the entries shown.
Test system: jejunal segments from ovalbumin-sensitized rats
procedure-summary: antigen-induced jejunal segment contraction, URE/OA ratio, Example 7
Parameters: species or system rat
condition-context: Table 3; 10 μg peptide, 100 ng OA, 20 μg urecholine; saline 4.0 ± 0.4
Ends that are not written are not given here.

# substance, measurement
measured = [
    ("TDIFEGG-NH2 [T5, SGP-T with amidated terminal glycine]", "4.3 ± 0.7"),
    ("TAIFEGG [T7, alanine analogue of SGP-T]", "12.3 ± 2.2"),
    ("STDIFEGG [T2, analogue of SGP-T]", "3.58 ± 1.07"),
    ("TDAFEGG [T10, alanine analogue of SGP-T]", "8.3 ± 1.9"),
    ("ADIFEGG [T3, alanine analogue of SGP-T]", "3.6 ± 0.9"),
]

Parameters: items (list). Returns: URE/OA for each item.
1. TDIAEGG [T11, alanine analogue of SGP-T]
2. TDIFAGG [T9, alanine analogue of SGP-T]

[reply]
1: 5.2 ± 1.2; 2: 7.2 ± 1.1
